Where do these numbers come from? They come from paper PMC13311836.

assay_system: T1, RasGAP SH2-SH3-SH2 construct (residues 174 to 444), R427Q (human, UniProt P20936 174-444, C236S | C261S | C372S | C402S | R427Q)
T1 sequence: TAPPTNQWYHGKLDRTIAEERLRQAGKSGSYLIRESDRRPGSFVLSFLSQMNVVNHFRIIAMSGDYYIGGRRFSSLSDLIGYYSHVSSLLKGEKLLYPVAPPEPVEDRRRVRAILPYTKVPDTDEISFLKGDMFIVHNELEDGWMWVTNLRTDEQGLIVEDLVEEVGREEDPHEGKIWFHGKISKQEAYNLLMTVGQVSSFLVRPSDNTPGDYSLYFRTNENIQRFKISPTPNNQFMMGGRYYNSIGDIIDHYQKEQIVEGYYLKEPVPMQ
experiment_description: ITC; average
[ ]: non-standard residue; d: D form. pY = N[C@@H](Cc1ccc(OP(=O)(O)O)cc1)C(=O)O
test_readout: pKd
Recall that pKd is obtained by taking minus log10 of the concentration measured in molar.

Find the recorded pKd belonging to Ac-DPSD[pY]AEPMDAVVKPRNEEENI[pY]SVPHDS-NH2 (p190RhoGAP (ARHGAP35), UniProt Q9NRY4, residues 1083-1111, 29 amino acids; also called p190RhoGAP peptide; ARHGAP35 peptide; source: synthetic peptide, bought: GenScript) [p190RhoGAP phosphopeptide, residues 1083 to 1111 (pY1087, pY1105)] and report it.
8.29
